Record form. Attribute: inhibition. Fill in for each entry.
Target: Adenosine receptor A3 (Homo sapiens) (UniProt P0DMS8)
Sequence (P0DMS8 whole entry): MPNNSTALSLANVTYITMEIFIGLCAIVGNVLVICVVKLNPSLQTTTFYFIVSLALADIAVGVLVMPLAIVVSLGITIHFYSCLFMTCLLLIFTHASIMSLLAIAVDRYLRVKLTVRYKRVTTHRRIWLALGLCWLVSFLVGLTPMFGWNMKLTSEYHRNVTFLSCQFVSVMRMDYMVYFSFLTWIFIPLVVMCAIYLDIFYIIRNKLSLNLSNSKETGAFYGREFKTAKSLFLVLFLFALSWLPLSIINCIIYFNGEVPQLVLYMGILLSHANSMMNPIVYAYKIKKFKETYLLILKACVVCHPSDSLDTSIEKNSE
Assay: Displacement of [3H]PSB-11 from recombinant human A3 adenosine receptor expressed in CHO cell membranes at 1 uM measured after 45 mins in presence of adenosine deaminase by liquid scintillation counting method relative to control
Form field: result (number plus unit)

Query: Fill in: inhibition of CCCn1c(=O)[nH]c2nc(-c3ccc(S(=O)(=O)N(C)CCc4ccccc4)cc3)[nH]c2c1=O is ___
Response: 4%

Query: Please do the same for CCCn1c(=O)[nH]c2nc(-c3ccc(S(=O)(=O)N4CCN(Cc5ccc(Br)cc5)CC4)cc3)[nH]c2c1=O as well.
Response: 28%

Query: Same read-out for CCCn1c(=O)[nH]c2nc(-c3ccc(S(=O)(=O)N4CCN(Cc5cccc(C)c5)CC4)cc3)[nH]c2c1=O ?
Response: 17%

Query: And what about the compound CCCn1c(=O)[nH]c2nc(-c3ccc(S(=O)(=O)N4CCN(Cc5cccc(Br)c5)CC4)cc3)[nH]c2c1=O ?
Response: 23%

Query: Would you mind doing CCCn1c(=O)[nH]c2nc(-c3ccc(S(=O)(=O)N4CCN(c5ccccc5C)CC4)cc3)[nH]c2c1=O as well?
Response: 25%

Query: Now try CCCn1c(=O)[nH]c2nc(-c3ccc(S(=O)(=O)N4CCN(c5ccc(O)cc5)CC4)cc3)[nH]c2c1=O .
Response: 21%

Query: Check CCCn1c(=O)c2[nH]c(-c3ccc(S(=O)(=O)N4CCN(c5ccc(Cl)cc5)CC4)cc3)nc2n(CC)c1=O too.
Response: 28%

Query: Would you kindly repeat that for CCCn1c(=O)[nH]c2nc(-c3ccc(S(=O)(=O)N4CCN(c5cccc(F)c5)CC4)cc3)[nH]c2c1=O ?
Response: 44%

Query: Please do the same for CCCn1c(=O)[nH]c2nc(-c3ccc(S(=O)(=O)N4CCN(c5ccc(Cl)cc5F)CC4)cc3)[nH]c2c1=O as well.
Response: 14%

Query: Next up: CCCn1c(=O)[nH]c2nc(-c3ccc(S(=O)(=O)N4CCN(c5cccc(OC)c5)CC4)cc3)[nH]c2c1=O
Response: -1%

Query: What do we get for CCCn1c(=O)[nH]c2nc(-c3ccc(S(=O)(=O)N4CCN(c5ccccc5Br)CC4)cc3)[nH]c2c1=O ?
Response: 20%

Query: What do you have for CCCn1c(=O)[nH]c2nc(-c3ccc(S(=O)(=O)N4CCN(C(C)c5ccccc5)CC4)cc3)[nH]c2c1=O (stereo unspecified) ?
Response: 0%

Query: And what about the compound CCCn1c(=O)[nH]c2nc(-c3ccc(S(=O)(=O)N4CCN(Cc5ccc(OC)c(F)c5)CC4)cc3)[nH]c2c1=O ?
Response: 15%

Query: Let us now turn to CCCn1c(=O)c2[nH]c(-c3ccc(S(=O)(=O)N4CCN(c5ccc(Cl)cc5)CC4)cc3)nc2n(C)c1=O
Response: 39%

Query: Same for CCCn1c(=O)[nH]c2nc(-c3ccc(S(=O)(=O)N4CCN(c5ccc(Br)cc5)CC4)cc3)[nH]c2c1=O
Response: 29%

Query: And then CCCn1c(=O)[nH]c2nc(-c3ccc(S(=O)(=O)N4CCN(Cc5ccc(OCCO)cc5)CC4)cc3)[nH]c2c1=O , what is it?
Response: 17%

Query: And then CCCn1c(=O)[nH]c2nc(-c3ccc(S(=O)(=O)N4CCN(Cc5ccc(C(=O)O)cc5)CC4)cc3)[nH]c2c1=O , what is it?
Response: -7%

Query: What about this compound? CCCn1c(=O)[nH]c2nc(-c3ccc(S(=O)(=O)N4CCN(c5ccccc5Cl)CC4)cc3)[nH]c2c1=O
Response: 32%

Query: Please do the same for CCCn1c(=O)[nH]c2nc(-c3ccc(S(=O)(=O)N4CCN(c5ccccc5F)CC4)cc3)[nH]c2c1=O as well.
Response: 9%

Query: Another compound to check: CCCn1c(=O)[nH]c2nc(-c3ccc(S(=O)(=O)N4CCN(C)CC4)cc3)[nH]c2c1=O
Response: 7%

Query: Further, for CCCn1c(=O)[nH]c2nc(-c3ccc(S(=O)(=O)N4CCN(Cc5cc(F)cc(OC)c5)CC4)cc3)[nH]c2c1=O ?
Response: 12%

Query: Field entry: CCCn1c(=O)[nH]c2nc(-c3ccc(S(=O)(=O)N4CCN(Cc5ccc(OCCOCCOC)cc5)CC4)cc3)[nH]c2c1=O
Response: 30%

Query: What do we get for CCCn1c(=O)[nH]c2nc(-c3ccc(S(=O)(=O)N4CCN(Cc5ccc(Br)c(F)c5)CC4)cc3)[nH]c2c1=O ?
Response: 27%

Query: Same read-out for CCCn1c(=O)[nH]c2nc(-c3ccc(S(=O)(=O)N4CCN(c5ccc(OC)c(F)c5)CC4)cc3)[nH]c2c1=O ?
Response: 21%

Query: Next entry: CCCn1c(=O)[nH]c2nc(-c3ccc(S(=O)(=O)N4CCN(c5ccc(OC)c(Cl)c5)CC4)cc3)[nH]c2c1=O
Response: 1%

Query: Also, CCCn1c(=O)[nH]c2nc(-c3ccc(S(=O)(=O)N4CCN(c5ccc(Cl)c(OC)c5)CC4)cc3)[nH]c2c1=O please.
Response: 46%

Query: How about CCCn1c(=O)[nH]c2nc(-c3ccc(S(=O)(=O)N4CCN(c5ccc(F)cc5)CC4)cc3)[nH]c2c1=O ?
Response: 38%

Query: How about this compound: CCCn1c(=O)[nH]c2nc(-c3ccc(S(=O)(=O)N4CCN(c5ccccc5)CC4)cc3)[nH]c2c1=O
Response: 27%

Query: Please do the same for CCCn1c(=O)[nH]c2nc(-c3ccc(S(=O)(=O)N4CCN(c5cccc(Br)c5)CC4)cc3)[nH]c2c1=O as well.
Response: 27%

Query: // same read-out, input: CCCn1c(=O)[nH]c2nc(-c3ccc(S(=O)(=O)N4CCN(c5ccc(Cl)c(O)c5)CC4)cc3)[nH]c2c1=O
Response: 31%

Query: What do we get for CCCn1c(=O)[nH]c2nc(-c3ccc(S(=O)(=O)N4CCN(Cc5ccc(F)c(OC)c5)CC4)cc3)[nH]c2c1=O ?
Response: -5%
